- assayed-target: T1, human programmed cell death protein 1 (hPD-1) C93S (aa 24-167) (Homo sapiens, UniProt Q15116, C93S)
- T1 construct: made as a fusion with a TEV site and human Fc; the Fc was cut off with TEV protease; source: Expi293F, purified (Protein A, TEV cleavage of Fc, SEC; monomer fractions); not shown: Fc (human), C-terminal, cleaved
- T1 sequence (Q15116 24-167 C93S): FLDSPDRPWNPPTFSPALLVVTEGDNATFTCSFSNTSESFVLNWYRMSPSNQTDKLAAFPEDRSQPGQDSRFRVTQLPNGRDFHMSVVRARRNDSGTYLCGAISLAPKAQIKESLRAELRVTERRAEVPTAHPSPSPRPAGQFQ
- test-protocol: SPR; Carterra LSA; Fab from the ammonium sulfate precipitate of the culture supernatant immobilised on a NiHC200M chip; hPD-1 (1-1024 nM) or mPD-1-Fc (4-1024 nM) as analyte, fourfold dilution series, no regeneration; HBS-EP pH 7.4, 25 °C; medians over the spots of a construct, KD = koff/kon
- experimental-setup: one partner purified
Binarize Kd at 6 nM; below is criterion met, at or above is criterion not met.

Examples with answers:
INSERT INTO results (binder, discrete_label) VALUES
  ('toripalimab Fab L.P100W (Fab, V domains shown, as the heavy chain of Sm3; light chain of Sm3 with this change; numbers count from the chain''s first residue; source: Brevibacillus, culture supernatant (ammonium sulfate precipitate); not shown: 6xHis, C-terminal, kept; 6xHN, C-terminal, kept) VH: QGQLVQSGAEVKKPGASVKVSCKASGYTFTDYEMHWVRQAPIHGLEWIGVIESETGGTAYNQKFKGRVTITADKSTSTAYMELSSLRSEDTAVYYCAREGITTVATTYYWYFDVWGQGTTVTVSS VL: DVVMTQSPLSLPVTLGQPASISCRSSQSIVHSNGNTYLEWYLQKPGQSPQLLIYKVSNRFSGVPDRFSGSGSGTDFTLKISRVEAEDVGVYYCFQGSHVWLTFGQGTKLEIK', 'criterion met'),
  ('toripalimab Fab L.V99K (Fab, V domains shown, as the heavy chain of Sm3; light chain of Sm3 with this change; numbers count from the chain''s first residue; source: Brevibacillus, culture supernatant (ammonium sulfate precipitate); not shown: 6xHis, C-terminal, kept; 6xHN, C-terminal, kept) VH: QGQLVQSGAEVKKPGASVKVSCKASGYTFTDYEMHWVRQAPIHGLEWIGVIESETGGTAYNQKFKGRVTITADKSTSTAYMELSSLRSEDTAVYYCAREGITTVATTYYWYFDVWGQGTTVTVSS VL: DVVMTQSPLSLPVTLGQPASISCRSSQSIVHSNGNTYLEWYLQKPGQSPQLLIYKVSNRFSGVPDRFSGSGSGTDFTLKISRVEAEDVGVYYCFQGSHKPLTFGQGTKLEIK', 'criterion not met'),
  ('toripalimab Fab L.V56A (Fab, V domains shown, as the heavy chain of Sm3; light chain of Sm3 with this change; numbers count from the chain''s first residue; source: Brevibacillus, culture supernatant (ammonium sulfate precipitate); not shown: 6xHis, C-terminal, kept; 6xHN, C-terminal, kept) VH: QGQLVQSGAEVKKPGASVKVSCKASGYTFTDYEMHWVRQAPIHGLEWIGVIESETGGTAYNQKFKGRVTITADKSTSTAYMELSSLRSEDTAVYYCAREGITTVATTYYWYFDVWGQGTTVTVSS VL: DVVMTQSPLSLPVTLGQPASISCRSSQSIVHSNGNTYLEWYLQKPGQSPQLLIYKASNRFSGVPDRFSGSGSGTDFTLKISRVEAEDVGVYYCFQGSHVPLTFGQGTKLEIK', 'criterion met'),
  ('toripalimab Fab L.T36A (Fab, V domains shown, as the heavy chain of Sm3; light chain of Sm3 with this change; numbers count from the chain''s first residue; source: Brevibacillus, culture supernatant (ammonium sulfate precipitate); not shown: 6xHis, C-terminal, kept; 6xHN, C-terminal, kept) VH: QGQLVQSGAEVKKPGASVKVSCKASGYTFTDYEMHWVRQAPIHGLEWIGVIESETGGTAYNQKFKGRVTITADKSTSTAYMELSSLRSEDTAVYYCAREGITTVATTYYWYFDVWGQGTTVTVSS VL: DVVMTQSPLSLPVTLGQPASISCRSSQSIVHSNGNAYLEWYLQKPGQSPQLLIYKVSNRFSGVPDRFSGSGSGTDFTLKISRVEAEDVGVYYCFQGSHVPLTFGQGTKLEIK', 'criterion met'),
  ('toripalimab Fab H.F112A (Fab, V domains shown, heavy chain of Sm3 with this change; numbers count from the chain''s first residue; as the light chain of Sm3; source: Brevibacillus, culture supernatant (ammonium sulfate precipitate); not shown: 6xHis, C-terminal, kept; 6xHN, C-terminal, kept) VH: QGQLVQSGAEVKKPGASVKVSCKASGYTFTDYEMHWVRQAPIHGLEWIGVIESETGGTAYNQKFKGRVTITADKSTSTAYMELSSLRSEDTAVYYCAREGITTVATTYYWYADVWGQGTTVTVSS VL: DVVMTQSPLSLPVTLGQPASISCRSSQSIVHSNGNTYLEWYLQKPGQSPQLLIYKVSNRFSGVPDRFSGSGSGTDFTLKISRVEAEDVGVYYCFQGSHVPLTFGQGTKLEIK', 'criterion not met'),
  ('toripalimab Fab H.A59Y (Fab, V domains shown, heavy chain of Sm3 with this change; numbers count from the chain''s first residue; as the light chain of Sm3; source: Brevibacillus, culture supernatant (ammonium sulfate precipitate); not shown: 6xHis, C-terminal, kept; 6xHN, C-terminal, kept) VH: QGQLVQSGAEVKKPGASVKVSCKASGYTFTDYEMHWVRQAPIHGLEWIGVIESETGGTYYNQKFKGRVTITADKSTSTAYMELSSLRSEDTAVYYCAREGITTVATTYYWYFDVWGQGTTVTVSS VL: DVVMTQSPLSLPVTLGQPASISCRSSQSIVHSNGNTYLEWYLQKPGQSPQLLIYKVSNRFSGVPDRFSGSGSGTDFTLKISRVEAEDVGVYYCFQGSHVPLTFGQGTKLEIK', 'criterion met'),
  ('toripalimab Fab L.L101W (Fab, V domains shown, as the heavy chain of Sm3; light chain of Sm3 with this change; numbers count from the chain''s first residue; source: Brevibacillus, culture supernatant (ammonium sulfate precipitate); not shown: 6xHis, C-terminal, kept; 6xHN, C-terminal, kept) VH: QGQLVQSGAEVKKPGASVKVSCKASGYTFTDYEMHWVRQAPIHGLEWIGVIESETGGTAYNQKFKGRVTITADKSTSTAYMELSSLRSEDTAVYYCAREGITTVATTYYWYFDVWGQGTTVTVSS VL: DVVMTQSPLSLPVTLGQPASISCRSSQSIVHSNGNTYLEWYLQKPGQSPQLLIYKVSNRFSGVPDRFSGSGSGTDFTLKISRVEAEDVGVYYCFQGSHVPWTFGQGTKLEIK', 'criterion not met'),
  ('toripalimab Fab L.L101E (Fab, V domains shown, as the heavy chain of Sm3; light chain of Sm3 with this change; numbers count from the chain''s first residue; source: Brevibacillus, culture supernatant (ammonium sulfate precipitate); not shown: 6xHis, C-terminal, kept; 6xHN, C-terminal, kept) VH: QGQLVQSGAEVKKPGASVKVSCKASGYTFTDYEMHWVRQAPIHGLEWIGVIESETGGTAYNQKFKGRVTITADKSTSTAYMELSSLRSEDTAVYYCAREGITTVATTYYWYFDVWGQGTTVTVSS VL: DVVMTQSPLSLPVTLGQPASISCRSSQSIVHSNGNTYLEWYLQKPGQSPQLLIYKVSNRFSGVPDRFSGSGSGTDFTLKISRVEAEDVGVYYCFQGSHVPETFGQGTKLEIK', 'criterion not met');

Given the entry toripalimab Fab L.L38A (Fab, V domains shown, as the heavy chain of Sm3; light chain of Sm3 with this change; numbers count from the chain's first residue; source: Brevibacillus, culture supernatant (ammonium sulfate precipitate); not shown: 6xHis, C-terminal, kept; 6xHN, C-terminal, kept) VH: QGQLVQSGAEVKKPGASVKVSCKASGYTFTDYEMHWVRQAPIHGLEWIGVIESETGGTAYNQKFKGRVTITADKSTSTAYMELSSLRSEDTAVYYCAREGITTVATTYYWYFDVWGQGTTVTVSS VL: DVVMTQSPLSLPVTLGQPASISCRSSQSIVHSNGNTYAEWYLQKPGQSPQLLIYKVSNRFSGVPDRFSGSGSGTDFTLKISRVEAEDVGVYYCFQGSHVPLTFGQGTKLEIK , would its reported Kd be below 6 nM? criterion met

Answer whether the binder toripalimab Fab H.V104A (Fab, V domains shown, heavy chain of Sm3 with this change; numbers count from the chain's first residue; as the light chain of Sm3; source: Brevibacillus, culture supernatant (ammonium sulfate precipitate); not shown: 6xHis, C-terminal, kept; 6xHN, C-terminal, kept) VH: QGQLVQSGAEVKKPGASVKVSCKASGYTFTDYEMHWVRQAPIHGLEWIGVIESETGGTAYNQKFKGRVTITADKSTSTAYMELSSLRSEDTAVYYCAREGITTAATTYYWYFDVWGQGTTVTVSS VL: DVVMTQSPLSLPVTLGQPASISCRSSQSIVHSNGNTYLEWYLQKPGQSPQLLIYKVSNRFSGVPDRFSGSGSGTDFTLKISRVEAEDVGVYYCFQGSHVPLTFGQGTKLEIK has Kd strictly less than 6 nM criterion met
